- System: Adipocyte
- test method notes: Effect on 2-deoxy-D-[1-3H]glucose transport in Sprague-Dawley rat adipocytes at 10 uM in presence of insulin by liquid scintillation counting
- Assay type: functional
# Lookup of reported Activity keyed by entry
measured parameter: Activity (disintegrations/minute)

molecule=O=C(NC1CCCCC1)NS(=O)(=O)c1ccc(CCNS(=O)(=O)c2ccc(Cl)cc2)cc1 system_under_test=Adipocyte measured_parameter=Activity numeric_result=5933.89
molecule=O=C(NC1CCCCC1)NS(=O)(=O)c1ccc(CCNS(=O)(=O)c2ccc(Br)cc2)cc1 system_under_test=Adipocyte measured_parameter=Activity numeric_result=6002.46
molecule="CC(=O)Nc1ccc(S(=O)(=O)NCCc2ccc(S(=O)(=O)NC(=O)NC3CCC(C)CC3)cc2)cc1 (stereo not given)" system_under_test=Adipocyte measured_parameter=Activity numeric_result=6200.35
molecule=COc1ccc(NC(=S)NS(=O)(=O)c2ccc(CCNS(=O)(=O)c3ccccc3)cc2)cc1 system_under_test=Adipocyte measured_parameter=Activity numeric_result=7555.71
molecule="CCC1=C(C)CN(C(=O)NCCc2ccc(S(=O)(=O)NC(=O)N[C@H]3CC[C@H](C)CC3)cc2)C1=O [GLIMEPIRIDE]" system_under_test=Adipocyte measured_parameter=Activity numeric_result=8593.72
molecule="CC(=O)Nc1ccc(S(=O)(=O)NCCc2ccc(S(=O)(=O)NC(=O)NC3CCC(C)CC3)cc2)cc1C (stereo not given)" system_under_test=Adipocyte measured_parameter=Activity numeric_result=6516.9
molecule=COc1ccc(NC(=S)NS(=O)(=O)c2ccc(CCNS(=O)(=O)c3ccc(Br)cc3)cc2)cc1 system_under_test=Adipocyte measured_parameter=Activity numeric_result=5234.61
molecule=COc1ccc(NC(=S)NS(=O)(=O)c2ccc(CCNS(=O)(=O)c3ccc(C)cc3)cc2)cc1 system_under_test=Adipocyte measured_parameter=Activity numeric_result=5377.15
molecule=O=S(=O)(NCCc1ccc(S(=O)(=O)NC(=S)Nc2ccc(Cl)cc2)cc1)c1ccc(Cl)cc1 system_under_test=Adipocyte measured_parameter=Activity numeric_result=5436.58
molecule=Cc1ccc(S(=O)(=O)NCCc2ccc(S(=O)(=O)NC(=O)NC3CCCCC3)cc2)cc1 system_under_test=Adipocyte measured_parameter=Activity numeric_result=5533.15
